target: GRP78 on the surface of human cells (EAHY, HMVEC, HT1080) (human, UniProt P11021 19-654); assay: cell-based or functional assay
Sequence (P11021 19-654): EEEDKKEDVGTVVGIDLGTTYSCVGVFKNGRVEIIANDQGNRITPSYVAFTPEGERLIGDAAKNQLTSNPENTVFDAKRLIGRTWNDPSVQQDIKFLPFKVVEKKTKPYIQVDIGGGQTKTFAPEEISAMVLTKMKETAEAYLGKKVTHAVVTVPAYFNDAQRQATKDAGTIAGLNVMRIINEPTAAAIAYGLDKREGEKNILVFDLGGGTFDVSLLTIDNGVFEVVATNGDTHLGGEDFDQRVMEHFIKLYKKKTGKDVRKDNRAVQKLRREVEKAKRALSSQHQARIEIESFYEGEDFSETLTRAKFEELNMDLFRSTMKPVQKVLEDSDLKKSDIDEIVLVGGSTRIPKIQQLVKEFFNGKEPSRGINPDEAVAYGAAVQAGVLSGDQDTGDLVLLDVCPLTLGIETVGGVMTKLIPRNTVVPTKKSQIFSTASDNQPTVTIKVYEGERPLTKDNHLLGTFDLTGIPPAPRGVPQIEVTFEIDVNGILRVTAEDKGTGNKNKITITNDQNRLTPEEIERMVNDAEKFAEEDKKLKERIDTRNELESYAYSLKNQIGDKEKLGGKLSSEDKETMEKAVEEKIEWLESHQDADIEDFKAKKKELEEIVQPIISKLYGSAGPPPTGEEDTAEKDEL
Exercise: state measured IC50, inhibition of VEGF stimulated HMVEC migration for each of the binders provided.
Write it as a number; the unit nM goes unstated.

Ask: Value lookup for IC50, inhibition of VEGF stimulated HMVEC migration; key = N-term-S-tag-Kringle 5 (ligand, human, UniProt P00747 481-560, looked up, not shown: small tags and cut ends) CMFGNGKGYRGKRATTVTGTPCQDWAAQEPHRHSIFTPETNPRAGLEKNYCRNPDGDVGGPWCYTTNPRKLYDYCDVPQC
Reply: 0.2

Ask: Could you share which IC50, inhibition of VEGF stimulated HMVEC migration value was measured for recombinant human kringle 5 (rK5), Kringle 5 (450-543) of human plasminogen (ligand, UniProt P00747 469-562, looked up, tritium-labelled where printed as ^3HK5, range 450-543; Made in E. coli (His-tag removed by enterokinase) and in Pichia pastoris; Labelled and unlabelled rK5 are treated as one molecule; also called ^3HK5; H^3K5) LLPDVETPSEEDCMFGNGKGYRGKRATTVTGTPCQDWAAQEPHRHSIFTPETNPRAGLEKNYCRNPDGDVGGPWCYTTNPRKLYDYCDVPQCAA ?
Reply: 0.2

Ask: Look up IC50, inhibition of VEGF stimulated HMVEC migration: Ac-KLYDY-NH2 [Ac-KLYDY-NH2]
Reply: 0.1
